Entry source: the Deep4Chem optical property database

# method: photoluminescence quantum yield (fraction); solvent given as SMILES
# measurement parameters: in C1CCOC1
readout name: photoluminescence quantum yield
Could you keep your reply to the number by itself?

Take a look at these entries with their results.
Input line: Give recorded photoluminescence quantum yield. CC(=O)c1ccc2ccc3c(NCCC(=O)NCCCCCCc4nc5c(=O)[nH]c(N)nc5n4[C@H]4C[C@H](O)[C@@H](CO)O4)ccc4ccc1c2c43
Output line: 0.62

Input line: Give recorded photoluminescence quantum yield. CC1=C(C#Cc2ccc(N(c3ccccc3)c3ccccc3)cc2)C(C)=[N+]2C1=C(c1ccccc1)c1c(C)c(C#Cc3ccc(N(c4ccccc4)c4ccccc4)cc3)c(C)n1[B-]2(F)F
Output line: 0.31

Input line: Give recorded photoluminescence quantum yield. F[B-]1(F)OC(c2ccccc2)=Nc2sc(-c3ccccc3)n[n+]21
Output line: 0.02

Input line: Give recorded photoluminescence quantum yield. c1cc2ccc1-c1ccc(cc1)-c1ccc([se]1)-c1ccc(cc1)-c1ccc(cc1)-c1ccc([se]1)-c1ccc(cc1)-c1ccc(cc1)-c1ccc-2[se]1
Output line: 0.08

Input line: Give recorded photoluminescence quantum yield. CC(=O)c1ccc(NC(=O)c2ccc(N(C)C)cc2)cc1
Output line: 0.0158

Further cases:
Input line: Give recorded photoluminescence quantum yield. COC(=O)c1ccc(NC(=O)c2ccc(N(C)C)cc2)cc1
Output line: 0.198

Input line: Give recorded photoluminescence quantum yield. CC1(C)c2ccccc2N(c2ccc3c(ccc4nc5ccc6cc(N7c8ccccc8C(C)(C)c8ccccc87)ccc6c5nc43)c2)c2ccccc21
Output line: 0.07

Input line: Give recorded photoluminescence quantum yield. O=C(c1ccc(N(c2ccccc2)c2ccccc2)cc1)[C@H]1[C@H](c2ccccc2)C[C@](O)(c2ccccn2)C[C@]1(O)c1ccccn1
Output line: 0.48

Input line: Give recorded photoluminescence quantum yield. CCCc1ccc2c(c1)cc1n2B2c3c4c-1cccc4cc1cccc(c31)-c1cc3cc(CCC)ccc3n12
Output line: 0.39

Input line: Give recorded photoluminescence quantum yield. CCCCCCCCN1c2ccc(C#Cc3cc(C(F)(F)F)cc(C(F)(F)F)c3)cc2Sc2cc(C=O)ccc21
Output line: 0.53

Input line: Give recorded photoluminescence quantum yield. F[Si-](F)(c1ccccc1)(c1ccccc1)c1c2ccccc2cc2ccccc12
Output line: 0.76

Input line: Give recorded photoluminescence quantum yield. Cn1ccc(-c2nc3ccccc3nc2/C=C/N2CCCC2)c1
Output line: 0.495

====

Recorded photoluminescence quantum yield by entry
# method: photoluminescence quantum yield (fraction); solvent given as SMILES
# measurement parameters: in CCCCCCCCO
Could you keep your reply to the number by itself?

Take a look at these entries with their results.
Input line: Give recorded photoluminescence quantum yield. O=C1c2ccccc2-c2ccc(N3CCN(c4ccccc4)CC3)c3cccc1c23
Output line: 0.018

Input line: Give recorded photoluminescence quantum yield. CN(C)c1cc(C#N)c(N(C)C)c(C#N)c1
Output line: 0.58

Input line: Give recorded photoluminescence quantum yield. CC1=CC(C)=[N+]2C1=Cc1c3ccccc3c(C#Cc3ccccc3)n1[B-]2(F)F
Output line: 0.88

Read the next record carefully.
Input line: Give recorded photoluminescence quantum yield. O=C(O)COc1ccc2[nH]c3c(c2c1)CCCC3=O
Output line: 0.017

====

Recorded photoluminescence quantum yield by entry
# method: photoluminescence quantum yield (fraction); solvent given as SMILES
# measurement parameters: in CC#N
Could you keep your reply to the number by itself?

Take a look at these entries with their results.
Input line: Give recorded photoluminescence quantum yield. Cc1ccc(-c2ccc(/C=C/c3ccccc3)cn2)nc1
Output line: 0.67

Input line: Give recorded photoluminescence quantum yield. CN(C)c1ccc(C(=O)Nc2cccc(Cl)c2)cc1
Output line: 0.0319

Input line: Give recorded photoluminescence quantum yield. Clc1nc(Cl)nc(Nc2ccc3cc4ccccc4cc3c2)n1
Output line: 0

Input line: Give recorded photoluminescence quantum yield. CN(C)c1ccc2nc(-c3ccc(C(=O)Nc4ccccc4)cc3)sc2c1
Output line: 0.92

Input line: Give recorded photoluminescence quantum yield. CN(C)c1ccc(/C=C/c2ccc(-c3nc(C#N)c(C#N)n3C)cc2)cc1
Output line: 0.002

Further cases:
Input line: Give recorded photoluminescence quantum yield. COC(=O)c1cc(=O)n(C)c2cc(-c3ccc(Oc4ccccc4)cc3)sc12
Output line: 0.63

Input line: Give recorded photoluminescence quantum yield. CN1/C(=C\C=C\C2=C3C=CC(c4ccccc4)=[N+]3[B-](F)(F)n3c2ccc3-c2ccccc2)C(C)(C)c2ccccc21
Output line: 0.1

====

Recorded photoluminescence quantum yield by entry
# method: photoluminescence quantum yield (fraction); solvent given as SMILES
# measurement parameters: in ClCCl
Could you keep your reply to the number by itself?

Input line: Give recorded photoluminescence quantum yield. c1ccc(-c2c3ccc(=[N+]4CCCCC4)cc-3oc3cc(N4CCCCC4)ccc23)cc1
Output line: 0.89

Further cases:
Input line: Give recorded photoluminescence quantum yield. CCCCCCOC(=O)/C=C/C1=CC2=C(c3c(C)cc(C)cc3C)c3cc(/C=C/C(=O)OCCCCCC)cn3[B-](F)(F)[N+]2=C1
Output line: 0.68

Input line: Give recorded photoluminescence quantum yield. O=Cc1ccc(-c2cccc(-c3nc4ccccc4s3)c2O)o1
Output line: 0.111

Input line: Give recorded photoluminescence quantum yield. O=C1c2ccccc2C2=Cc3cccc[n+]3[B-](F)(F)N12
Output line: 0.47

Input line: Give recorded photoluminescence quantum yield. C1=Cc2ccc(N(c3ccccc3)c3cccc4ccccc34)cc2C2(c3cc(N(c4ccccc4)c4cccc5ccccc45)ccc31)c1ccccc1-c1ccccc12
Output line: 0.58

Input line: Give recorded photoluminescence quantum yield. Oc1ccc2ccccc2c1-c1nc2c(c3c1-c1ccccc1CC3)-c1ccccc1CC2
Output line: 0.07

Input line: Give recorded photoluminescence quantum yield. c1ccc(N(c2ccccc2)c2ccc(-c3ncnc4ccccc34)cc2)cc1
Output line: 0.93

Input line: Give recorded photoluminescence quantum yield. CN(C)c1cc(-c2ccccc2)cc2ccccc12
Output line: 0.52

Input line: Give recorded photoluminescence quantum yield. S=P1(c2ccccc2)c2cccc3c4c5ccccc5c5ccccc5c4c4ccc1n4c23 (centres undefined)
Output line: 0.24

====

# method: photoluminescence quantum yield (fraction); solvent given as SMILES
# measurement parameters: in CC#N
Lab note: cut-off is 0.5. Strictly less in photoluminescence quantum yield is y. Exactly 0.5 or more is n.

Input line: photoluminescence quantum yield strictly < 0.5 for this molecule? COc1ccc(-c2csc(/C(C#N)=C/c3ccc([N+](=O)[O-])cc3)n2)cc1
Output line: y

Input line: photoluminescence quantum yield strictly < 0.5 for this molecule? COC(=O)C(Cc1ccc2oc(-c3ccc(-n4c5ccccc5c5ccccc54)cc3)nc2c1)NC(=O)OC(C)(C)C (stereo not given)
Output line: y

Input line: photoluminescence quantum yield strictly < 0.5 for this molecule? Cc1ccc(-c2nc3c([nH]2)C2=CC(=O)S[C@]2(C)[C@@]2(C)SC(=O)C=C32)cc1
Output line: y

Input line: photoluminescence quantum yield strictly < 0.5 for this molecule? C1=Nc2cccc3cccc(c23)N1
Output line: y

Input line: photoluminescence quantum yield strictly < 0.5 for this molecule? c1ccc(-c2nc(-c3cccs3)[nH]c2-c2ccccc2)cc1
Output line: y

Input line: photoluminescence quantum yield strictly < 0.5 for this molecule? CN(C)c1ccc2nc(-c3ccc(C=O)cc3)sc2c1
Output line: n

Further cases:
Input line: photoluminescence quantum yield strictly < 0.5 for this molecule? Cc1cc(C)c(B(c2c(C)cc(C)cc2C)c2cc3ccc4ccccc4c3c3c2ccc2ccccc23)c(C)c1
Output line: n

Input line: photoluminescence quantum yield strictly < 0.5 for this molecule? O=C1CCCC2=C1CC1=C(CCCC1=O)N2NC(=O)c1ccccc1
Output line: y

Input line: photoluminescence quantum yield strictly < 0.5 for this molecule? c1ccc(N2c3ccccc3Sc3cc(-c4cccc5nc6ccccc6cc45)ccc32)cc1
Output line: y

Input line: photoluminescence quantum yield strictly < 0.5 for this molecule? CN(C)c1ccc(C(=O)Nc2ccc([N+](=O)[O-])cc2)cc1
Output line: y

====

# method: photoluminescence quantum yield (fraction); solvent given as SMILES
# measurement parameters: in Cc1ccccc1
Recorded photoluminescence quantum yield by entry
Could you keep your reply to the number by itself?

Input line: Give recorded photoluminescence quantum yield. CN(C)c1ccc(C2=Nc3scc(-c4ccc([N+](=O)[O-])cc4)[n+]3[B-](F)(F)O2)cc1
Output line: 0.001

Input line: Give recorded photoluminescence quantum yield. Cc1ccc(/C(C#N)=C/c2cc(/C=C(\C#N)c3ccc(C)cc3)c(-c3ccc(N(c4ccccc4)c4ccccc4)cc3)cc2-c2ccc(N(c3ccccc3)c3ccccc3)cc2)cc1
Output line: 0.06

Further cases:
Input line: Give recorded photoluminescence quantum yield. Cc1c2ccccc2c(C2=C3C=CC=[N+]3[B-](F)(F)n3cccc32)c2ccccc12
Output line: 0.007

Input line: Give recorded photoluminescence quantum yield. COc1c2ccccc2c(OC)c2c(C#Cc3ccccc3)c3cc4sccc4cc3c(C#Cc3ccccc3)c12
Output line: 0.1

Input line: Give recorded photoluminescence quantum yield. CN(C)c1ccc2cc(C3=[O+][B-](F)(F)OC(c4ccc(C#N)cc4)=C3)ccc2c1
Output line: 0.62
